Target: human H3 receptor (Homo sapiens)
Sequence (Q9Y5N1 whole entry): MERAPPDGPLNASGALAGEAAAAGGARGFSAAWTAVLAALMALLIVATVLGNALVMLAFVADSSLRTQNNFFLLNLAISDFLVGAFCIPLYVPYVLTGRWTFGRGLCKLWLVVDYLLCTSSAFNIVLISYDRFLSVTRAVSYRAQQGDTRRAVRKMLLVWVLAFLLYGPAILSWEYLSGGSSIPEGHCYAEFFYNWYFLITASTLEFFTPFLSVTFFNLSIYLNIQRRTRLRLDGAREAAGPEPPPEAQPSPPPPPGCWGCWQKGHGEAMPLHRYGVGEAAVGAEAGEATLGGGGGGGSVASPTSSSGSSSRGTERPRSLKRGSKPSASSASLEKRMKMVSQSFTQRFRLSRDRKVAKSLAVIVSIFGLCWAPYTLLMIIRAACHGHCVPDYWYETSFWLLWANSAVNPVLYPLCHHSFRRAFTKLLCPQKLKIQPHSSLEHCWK
Experiment: H3 receptor binding test (R(−)-α-methyl[3H]histamine)
Parameters: purchased Euroscreen ES-392-M; host or cells: CHO-K1
Conditions: inhibition of R(−)-α-methyl[3H]histamine (2 nM) binding, membrane of human H3 receptor-expressing CHO-K1 cells
pIC50: −log10 of the molar value.
metric: pIC50

> print(dat)
                                   molecule  value.reported
1  C[C@@H]1CCCN1CCCOc1ccc(-n2cc(N3CCCC3=O)cn2)cc1            8.48

A = CC1CCN(CCCOc2ccc(-n3cc(C(=O)N4CCOCC4)cn3)cc2)C1 (stereo not drawn)
B = C[C@@H]1CCCN1CCCOc1ccc(-n2cc(C(=O)N3CCC(F)(F)C3)cn2)cc1
C = C[C@H]1CCCN1CCCOc1ccc(-n2cc(C#N)cn2)cc1
D = O=C(c1cnn(-c2ccc(OCCCN3CCCC3)cc2)c1)N1CCOCC1
Thanks in advance: please rank these 4 entries by pIC50, highest to lowest. Lab note: final answer is the ordered label list.
B, C, D, A

P = C[C@@H]1CCCN1CCCOc1ccc(-n2cc(C(=O)N3CCCC3)cn2)cc1
Q = C[C@@H]1CCCN1CCCCOc1ccc(-n2cc(C(=O)N3CCOCC3)cn2)cc1
Rank P against Q by their pIC50 values and give the higher one. Which one? Tell me its label.
P
